Target: T1, human CD3 epsilon (Acro Cat #CDE-H5223) (human, UniProt P07766 23-126)
T1 construct: Bought recombinant protein; also called rhCD3E
T1 sequence (P07766 23-126 limits assumed): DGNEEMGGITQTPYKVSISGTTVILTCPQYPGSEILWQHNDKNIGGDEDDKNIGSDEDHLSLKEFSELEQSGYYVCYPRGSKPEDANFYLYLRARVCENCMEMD
Assay: SPR (Biacore), antibody captured, human CD3 epsilon analyte
Reported koff values for a set of binders
Your answer is read as s⁻¹, so omit the unit and give the number.

Query: # lookup: koff of 2037-B10_Hc-F27D (antibody, human IgG1, lambda, V domains shown, human IgG1, lambda; also called SRP 2037 F27D; 2037-B10_VH-F27D) VH: EVQLVESGGGLVKPGGSLRLSCAASGDTFNKYAMNWVRQAPGKGLEWVARIRTKYNNYATYYADSVKDRFTISRDDSKNTAYLQMNSLKTEDTAVYYCVRHGNFGNSYISYWAYWGQGTPVTVSS VL: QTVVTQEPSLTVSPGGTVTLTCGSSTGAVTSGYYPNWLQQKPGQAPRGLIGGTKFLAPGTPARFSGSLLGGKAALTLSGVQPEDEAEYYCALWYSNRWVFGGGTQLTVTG
Reply: 0.000278

Query: Further, for 2037-B10_Hc-A59D (antibody, human IgG1, lambda, V domains shown, human IgG1, lambda; also called SRP 2037 A59D; 2037-B10_VH-A59D) VH: EVQLVESGGGLVKPGGSLRLSCAASGFTFNKYAMNWVRQAPGKGLEWVARIRTKYNNYDTYYADSVKDRFTISRDDSKNTAYLQMNSLKTEDTAVYYCVRHGNFGNSYISYWAYWGQGTPVTVSS VL: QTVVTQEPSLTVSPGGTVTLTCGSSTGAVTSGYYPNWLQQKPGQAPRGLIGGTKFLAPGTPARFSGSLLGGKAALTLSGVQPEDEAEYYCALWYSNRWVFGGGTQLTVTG ?
Reply: 0.000251

Query: Another: 2037-B10_Hc-N56D (antibody, human IgG1, lambda, V domains shown, human IgG1, lambda; also called SRP 2037 N56D; 2037-B10_VH-N56D) VH: EVQLVESGGGLVKPGGSLRLSCAASGFTFNKYAMNWVRQAPGKGLEWVARIRTKYDNYATYYADSVKDRFTISRDDSKNTAYLQMNSLKTEDTAVYYCVRHGNFGNSYISYWAYWGQGTPVTVSS VL: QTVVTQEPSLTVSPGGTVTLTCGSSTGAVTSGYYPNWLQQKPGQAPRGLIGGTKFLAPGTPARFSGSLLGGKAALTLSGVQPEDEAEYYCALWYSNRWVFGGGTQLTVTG
Reply: 0.000668

Query: Further, for 2037-B10_Hc-F29D (antibody, human IgG1, lambda, V domains shown, human IgG1, lambda; also called SRP 2037 F29D; 2037-B10_VH-F29D) VH: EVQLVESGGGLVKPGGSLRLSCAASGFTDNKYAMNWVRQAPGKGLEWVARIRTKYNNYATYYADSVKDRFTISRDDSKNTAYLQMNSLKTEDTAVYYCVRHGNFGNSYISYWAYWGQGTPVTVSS VL: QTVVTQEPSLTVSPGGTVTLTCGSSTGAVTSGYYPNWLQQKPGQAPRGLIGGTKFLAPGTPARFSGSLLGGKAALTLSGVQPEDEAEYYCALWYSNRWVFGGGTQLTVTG ?
Reply: 0.000491

These entries and their values trace back to patent US20240124585A1.
